Test system: Streptococcus pyogenes
protocol details: Antimicrobial activity against Streptococcus pyogenes 2035
Assay type: functional
measured parameter: MIC (µg/mL)

[A] C/C(=C\c1cc(F)c(OCCCF)cc1F)C(=O)N[C@H]1C[C@@H]2OCO[C@@H]2[C@H](O)[C@H]1O
[B] C/C(=C\c1cc(F)c(OCCCF)cc1F)C(=O)N[C@H]1[C@@H](O)[C@@H]2OCO[C@@H]2[C@H](O)[C@H]1OCCCF
[C] COCCCO[C@@H]1[C@H](NC(=O)/C(C)=C/c2cc(F)c(OCCCF)cc2F)[C@H](O)[C@@H](O)[C@H]2OCO[C@H]21
[D] C/C(=C\c1cc(F)c(OCCCF)cc1F)C(=O)N[C@H]1[C@@H](O)[C@@H]2OCO[C@@H]2C[C@H]1O
Sort ascending by MIC. List labels; respect the requested ordering.
C, A, B, D
(C: 2 µg/mL, A: 4 µg/mL, B: 8 µg/mL, D: 16 µg/mL)

###

System: Streptococcus pyogenes
protocol details: Antimicrobial activity against Streptococcus pyogenes 1079
Type: functional
measured parameter: MIC (µg/mL)

Worked examples follow.
| compound | measured parameter | measured number |
| --- | --- | --- |
| C/C(=C\c1cc(F)c(OCCCF)cc1F)C(=O)N[C@H]1[C@@H](O)[C@@H]2OCO[C@@H]2[C@H](O)[C@H]1OCCCF | MIC | 2 |
| C/C(=C\c1cc(F)c(OCCCF)cc1F)C(=O)N[C@H]1C[C@@H]2OCO[C@@H]2[C@H](O)[C@H]1O | MIC | 8 |
| CO[C@@H]1[C@@H](O)[C@@H](NC(=O)/C(C)=C/c2cc(F)c(OCCCF)cc2F)[C@@H](O)[C@@H]2OCO[C@H]12 | MIC | 50 |

[P] COCCCO[C@@H]1[C@H](NC(=O)/C(C)=C/c2cc(F)c(OCCCF)cc2F)[C@H](O)[C@@H](O)[C@H]2OCO[C@H]21
[Q] CC(=O)[C@H]1O[C@@H](Oc2ccc(/C=C(\C)C(=O)N[C@@H]3[C@H](O)[C@@H](O)[C@H]4OCO[C@H]4[C@@H]3O)cc2O)[C@@H](O)[C@@H]1O
[R] C/C(=C\c1cc(F)c(OCCCF)cc1F)C(=O)N[C@@H]1[C@H](O)[C@@H](O)[C@H]2OCO[C@H]2[C@@H]1OCCCF
Ascending by MIC, please: list the compounds accordingly. // list labels; follow requested order
R, P, Q
(R: 0.125 µg/mL, P: 2 µg/mL, Q: 6.25 µg/mL)

[a] C/C(=C\c1cc(F)c(OCCCF)cc1F)C(=O)N[C@H]1[C@@H](O)[C@@H]2OCO[C@@H]2C[C@H]1O
[b] C=CCOc1ccc(/C=C(\C)C(=O)N[C@@H]2[C@H](O)[C@@H](O)[C@H]3OCO[C@H]3[C@@H]2O)cc1O
Compare a and b by numeric MIC and name the larger one. Mark your selection by writing its label.
a

[1] C/C(=C\c1cc(F)c(OCCCF)cc1F)C(=O)N[C@@H]1[C@H](O)[C@@H](O)[C@H]2OCO[C@H]2[C@@H]1OCC1CCOC1 (stereo not given in full)
[2] C/C(=C\c1cc(F)c(OCCCF)cc1F)C(=O)N[C@H]1[C@@H](O)[C@@H]2OCO[C@@H]2[C@H](O)[C@H]1OCC1CC1
Among 1 and 2 , whose measured MIC is the smaller figure? Reply with the label of the item you choose.
1

[a] CCO[C@@H]1[C@H](NC(=O)/C(C)=C/c2cc(F)c(OCCCF)cc2F)[C@H](O)[C@@H](O)[C@H]2OCO[C@H]21
[b] C/C(=C\c1cc(F)c(OCCCF)cc1F)C(=O)N[C@H]1[C@@H](O)[C@@H]2OCO[C@@H]2[C@H](O)[C@H]1OCc1ccccc1
Please indicate which entry, a or b , has the lower recorded MIC value. Your choice should be expressed through its label.
a

[A] CCCO[C@@H]1[C@@H](O)[C@H]2OCO[C@H]2[C@H](O)[C@@H]1NC(=O)/C(C)=C/c1cc(F)c(OCCCF)cc1F
[B] CCO[C@@H]1[C@@H](O)[C@H]2OCO[C@H]2[C@H](O)[C@@H]1NC(=O)/C(C)=C/c1cc(F)c(OCCCF)cc1F
Could you kindly indicate whether A or B has the higher MIC value? Select an item and report its label.
A
(A: 32 µg/mL, B: 2 µg/mL)

###

Test system: Streptococcus pneumoniae
protocol details: Antimicrobial activity against Streptococcus pneumoniae 1095
Type: functional
measured parameter: MIC (µg/mL)

[a] C/C(=C\c1cc(F)c(OCCCF)cc1F)C(=O)N[C@@H]1[C@H](O)[C@@H](O)[C@H]2OCO[C@H]2[C@@H]1OCC1CC1
[b] C/C(=C\c1cc(F)c(OCCCF)cc1F)C(=O)N[C@H]1[C@@H](O)[C@@H]2OCO[C@@H]2[C@H](O)[C@H]1OCCCF
[c] C=CCOc1ccc(/C=C(\C)C(=O)N[C@@H]2[C@H](O)[C@@H](O)[C@H]3OCO[C@H]3[C@@H]2O)cc1O
[d] CCO[C@@H]1[C@H](NC(=O)/C(C)=C/c2cc(F)c(OCCCF)cc2F)[C@H](O)[C@@H](O)[C@H]2OCO[C@H]21
# sort list by recorded MIC, greatest to least To answer, arrange all of the labels according to the requested order.
b, d, c, a
(b: 8 µg/mL, d: 4 µg/mL, c: 1.56 µg/mL, a: 1 µg/mL)

###

Tested on: Staphylococcus aureus
protocol details: Antimicrobial activity against Staphylococcus aureus 1146
Format: functional
measured parameter: MIC (µg/mL)

| compound | quantity unit | MIC |
| --- | --- | --- |
| C/C(=C\c1cc(F)c(OCCCF)cc1F)C(=O)N[C@@H]1[C@H](O)[C@@H](O)[C@H]2OCO[C@H]2[C@@H]1OCC1CC1 | µg/mL | 4 |

[A] C/C(=C\c1cc(F)c(OCCCF)cc1F)C(=O)N[C@@H]1[C@H](O)[C@@H](O)[C@H]2OCO[C@H]2[C@@H]1OCC1CCOC1 (stereo partly specified)
[B] C/C(=C\c1cc(F)c(OCCCF)cc1F)C(=O)N[C@H]1C[C@@H]2OCO[C@@H]2[C@H](O)[C@H]1O
[C] COCCCO[C@@H]1[C@H](NC(=O)/C(C)=C/c2cc(F)c(OCCCF)cc2F)[C@H](O)[C@@H](O)[C@H]2OCO[C@H]21
Hey, can you sort those compounds up there by MIC, smallest first? The labels, placed in the requested order, form the answer.
A, B, C

[a] C/C(=C\c1cc(F)c(OCCCF)cc1F)C(=O)N[C@@H]1[C@H](O)[C@@H](O)[C@H]2OCO[C@H]2[C@@H]1O
[b] C/C(=C\c1cc(F)c(OCCCF)cc1F)C(=O)N[C@@H]1[C@H](O)[C@@H](O)[C@H]2OCO[C@H]2[C@@H]1OCC#N
[c] C=CCOc1ccc(/C=C(\C)C(=O)N[C@@H]2[C@H](O)[C@@H](O)[C@H]3OCO[C@H]3[C@@H]2O)cc1O
# sort list by recorded MIC, greatest to least Provide the ranking by listing each label in its place in the requested order.
c, a, b
(c: 50 µg/mL, a: 4 µg/mL, b: 1 µg/mL)

[P] C/C(=C\c1cc(F)c(OCCCF)cc1F)C(=O)N[C@@H]1[C@H](O)[C@@H](O)[C@H]2OCO[C@H]2[C@@H]1OCCCF
[Q] C/C(=C\c1cc(F)c(OCCCF)cc1F)C(=O)N[C@H]1[C@@H](O)[C@@H]2OCO[C@@H]2C[C@H]1O
P or Q : whose MIC is greater? Lab note: record the label of whichever item you select.
Q
(Q: 32 µg/mL, P: 1 µg/mL)

[1] CO[C@@H]1[C@H](NC(=O)/C(C)=C/c2cc(F)c(OCCCF)cc2F)[C@H](O)[C@@H](O)[C@H]2OCO[C@H]21
[2] C/C(=C\c1cc(F)c(OCCCF)cc1F)C(=O)N[C@H]1[C@@H](O)[C@@H]2OCO[C@@H]2[C@H](O)[C@H]1OCCCF
[3] CC(=O)[C@H]1O[C@@H](Oc2ccc(/C=C(\C)C(=O)N[C@@H]3[C@H](O)[C@@H](O)[C@H]4OCO[C@H]4[C@@H]3O)cc2O)[C@@H](O)[C@@H]1O
[4] C/C(=C\c1cc(F)c(OCCCF)cc1F)C(=O)N[C@@H]1[C@H](O)[C@@H](O)[C@H]2OCO[C@H]2[C@@H]1OCc1ccccc1C#N
List from greatest to least MIC. Show the ranking through the labels, in the order asked for.
3, 2, 1, 4
(3: 25 µg/mL, 2: 8 µg/mL, 1: 3.13 µg/mL, 4: 1 µg/mL)

[a] CCCO[C@@H]1[C@H](NC(=O)/C(C)=C/c2cc(F)c(OCCCF)cc2F)[C@H](O)[C@@H](O)[C@H]2OCO[C@H]21
[b] CO[C@@H]1[C@@H](O)[C@@H](NC(=O)/C(C)=C/c2cc(F)c(OCCCF)cc2F)[C@@H](O)[C@@H]2OCO[C@H]12
Pick one: a or b . Which one has the lower reported MIC? Indicate your choice by writing its label.
a
(a: 8 µg/mL, b: 100 µg/mL)

[A] C/C(=C\c1cc(F)c(OCCCF)cc1F)C(=O)N[C@H]1[C@@H](O)[C@@H]2OCO[C@@H]2[C@H](O)[C@H]1OCc1ccccc1
[B] CCO[C@@H]1[C@H](NC(=O)/C(C)=C/c2cc(F)c(OCCCF)cc2F)[C@H](O)[C@@H](O)[C@H]2OCO[C@H]21
[C] C/C(=C\c1cc(F)c(OCCCF)cc1F)C(=O)N[C@@H]1[C@H](O)[C@@H](O)[C@H]2OCO[C@H]2[C@@H]1OCc1ccccc1
Output the entries ranked by MIC from maximum down to minimum. // respond by listing labels in the order requested
A, C, B
(A: 64 µg/mL, C: 16 µg/mL, B: 8 µg/mL)
